For each record, write down the corresponding composite z-score.
tested on: Inhibin beta A chain (activin A); test: INHBA (activin A) binders on microarrays, primary screen, biochemical, small-molecule microarray, 635 nm fluorescence scan (AID 1107); settings: small-molecule microarray binding, higher = more signal;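 also: mouse activin A protein probed at 4.33 µg/mL on printed slides; score merges bound-protein fluorescence near 667 nm with spot signal-to-noise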
Write the number on its own, no unit after it.

-- ask Quick check: composite z-score of C=CCC(OC(C)=O)[C@@H]1[C@@H](N(Cc2ccc(-c3cccc(C(F)(F)F)c3)o2)C(=O)c2ccc(C)cc2)c2cc(OCCCO)ccc2N1C(=O)Cc1ccc(OC)cc1 (stereo partly drawn) ?
-- reply 0.975

-- ask Quick check: composite z-score of CCCCC(=O)N(CCN1CCOCC1)[C@@H]1CC(C(=O)NCCO)=C[C@H](Oc2c(I)cc(CO)cc2OC)[C@H]1O ?
-- reply 0.0845

-- ask Quick check: composite z-score of Cc1ccc(S[C@]2(C(=O)NCc3ccccc3)CC(=O)N(Cc3cc(C(F)(F)F)cc(C(F)(F)F)c3)[C@@H]2c2ccc(CO)cc2I)cc1 ?
-- reply 1.02

-- ask Quick check: composite z-score of O=c1cccc(-c2ccco2)o1 ?
-- reply 1.24

-- ask Quick check: composite z-score of Cc1ccc(S[C@]2(C(=O)NC(C)C)CC(=O)N(Cc3ccccc3Cl)[C@@H]2c2ccc(CO)cc2)cc1 ?
-- reply -0.318

-- ask Quick check: composite z-score of CCCCNC(=O)c1ccc(C#C[Si](C(C)C)(C(C)C)C(C)C)c(OC(C)=O)c1 ?
-- reply 1.59

-- ask Quick check: composite z-score of COc1ccc(C(O)C2C=CC3C(=O)N(c4ccccc4)C(=O)C3N2Nc2ccccc2F)cc1 (stereo not drawn) ?
-- reply 0.685

-- ask Quick check: composite z-score of O=C1OCCC/C=C\[C@H]2OC34C=CCN(c5ccc6ccccc6c5)C(=O)[C@H]3N(CCCO)C(=O)[C@@H]4C12 (stereo partly drawn) ?
-- reply 0.479
